Data origin: patent US20140348834A1

# target.desc: T1, human IL-17A (human, UniProt Q16552 24-155)
# T1 construct: Recombinant; biotinylated in the ELISA; also called hIL-17; hIL17A
# protocol.text: SPR (Biacore 3000), antibody captured by anti-Fc, antigen in solution;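 note: purified recombinant IL-17 antigens flowed over captured antibodies in HBS-EP buffer, global Langmuir one-to-one fit of association and dissociation phases, KD derived from koff over kon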
outcome.measure: koff (s⁻¹)
State the answer as a number, implicitly in s⁻¹.

IL17-h5C5.8 (antibody, V domains shown, IgG; constant regions not specified; also called h5C5.8 (VH.1-Vk.1a)) VH: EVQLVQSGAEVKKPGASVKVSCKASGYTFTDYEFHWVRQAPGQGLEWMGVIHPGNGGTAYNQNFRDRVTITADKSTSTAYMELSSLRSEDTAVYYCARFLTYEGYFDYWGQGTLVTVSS VL: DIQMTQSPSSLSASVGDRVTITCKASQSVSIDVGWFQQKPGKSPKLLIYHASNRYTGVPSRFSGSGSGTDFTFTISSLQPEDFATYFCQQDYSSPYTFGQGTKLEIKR    0.000444

[Q] State the recorded koff for this entry: IL17-h5C5.21 (antibody, V domains shown, IgG; constant regions not specified; also called h5C5.21 (VH.1b-Vk.3c)) VH: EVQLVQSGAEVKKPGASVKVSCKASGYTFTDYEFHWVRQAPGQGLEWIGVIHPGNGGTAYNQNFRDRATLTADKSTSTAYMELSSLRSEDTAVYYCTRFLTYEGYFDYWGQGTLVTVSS VL: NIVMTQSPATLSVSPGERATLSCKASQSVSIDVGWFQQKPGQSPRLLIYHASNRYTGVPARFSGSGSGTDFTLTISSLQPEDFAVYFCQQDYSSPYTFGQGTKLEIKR
[A] 0.000395
